Source: ChEMBL document CHEMBL2040758

Tested on: MGC-803
protocol-text: Cytotoxicity against human MGC803 cells after 72 hrs by MTT assay
Format: functional, cell-based
measurement-parameters: MGC-803, 72 h
IC50 strictly less than 9 µM = true (1). Otherwise false (0).

Consider the worked cases shown below.
{"smiles-data": "COc1cc2ncnc(NNC(=S)NC(=O)c3ccccc3)c2cc1OC", "measured-target": "MGC-803", "category": "true (1)"}
{"smiles-data": "COc1cc2ncnc(NNC(=S)NC(=O)c3ccccc3Cl)c2cc1OC", "measured-target": "MGC-803", "category": "true (1)"}
{"smiles-data": "O=C(NC(=S)NNc1ncnc2ccccc12)c1ccccc1F", "measured-target": "MGC-803", "category": "true (1)"}
{"smiles-data": "COc1cc2ncnc(NNC(=S)NC(=O)c3ccccc3OC)c2cc1OC", "measured-target": "MGC-803", "category": "true (1)"}
{"smiles-data": "COc1cc2ncnc(NNC(=S)NC(=O)c3cccc(Cl)c3)c2cc1OC", "measured-target": "MGC-803", "category": "true (1)"}

Data request: Strictly below 9 µM: is that where IC50 of "COc1cc2ncnc(NNC(=S)NC(=O)c3ccc(F)cc3)c2cc1OC" sits?
Data returned: true (1)

Data request: Strictly below 9 µM: is that where IC50 of "COc1cc2ncnc(NNC(=S)NC(=O)c3ccc(Cl)cc3)c2cc1OC" sits?
Data returned: true (1)

Data request: Strictly below 9 µM: is that where IC50 of "COc1cc2ncnc(NNC(=S)NC(=O)c3ccc(C)cc3)c2cc1OC" sits?
Data returned: false (0)

Data request: Strictly below 9 µM: is that where IC50 of "COc1cc2ncnc(NNC(=S)NC(=O)c3ccccc3C)c2cc1OC" sits?
Data returned: false (0)

Data request: Strictly below 9 µM: is that where IC50 of "COc1cc2ncnc(NNC(=S)NC(=O)c3ccc(C(F)(F)F)cc3)c2cc1OC" sits?
Data returned: false (0)

Data request: Strictly below 9 µM: is that where IC50 of "O=c1[nH]cc(F)c(=O)[nH]1" sits?
Data returned: false (0)

* * *

Here, each record is paired with measured pIC50 data.
Test system: MGC-803
protocol-text: Cytotoxicity against human MGC803 cells after 72 hrs by MTT assay
Type: functional, cell-based
measurement-parameters: MGC-803, 72 h
Here pIC50 is given on a logarithmic scale as minus log10 of the concentration in mol/L.

Some entries whose results are on file:
{"smiles-data": "O=C(NC(=S)NNc1ncnc2ccccc12)c1ccc(Cl)cc1", "pIC50": 5.73}
{"smiles-data": "O=C(NC(=S)NNc1ncnc2ccccc12)c1ccc(C(F)(F)F)cc1", "pIC50": 4.97}
{"smiles-data": "Cc1ccc(C(=O)NC(=S)NNc2ncnc3ccccc23)cc1", "pIC50": 5.42}
{"smiles-data": "COc1cc2ncnc(NNC(=S)NC(=O)c3ccccc3F)c2cc1OC", "pIC50": 5.62}

Data request: Tell me its pIC50 given "COc1ccccc1C(=O)NC(=S)NNc1ncnc2ccccc12" as the entry.
Data returned: 4.84

Data request: Tell me its pIC50 given "O=C(NC(=S)NNc1ncnc2ccccc12)c1cccc(Cl)c1" as the entry.
Data returned: 5.34

Data request: Tell me its pIC50 given "O=C(NC(=S)NNc1ncnc2ccccc12)c1ccccc1" as the entry.
Data returned: 5.16

Data request: Tell me its pIC50 given "Cc1ccccc1C(=O)NC(=S)NNc1ncnc2ccccc12" as the entry.
Data returned: 5.37

Data request: Tell me its pIC50 given "O=C(NC(=S)NNc1ncnc2ccccc12)c1ccccc1Cl" as the entry.
Data returned: 5.04

Data request: Tell me its pIC50 given "O=C(NC(=S)NNc1ncnc2ccccc12)c1ccc(F)cc1" as the entry.
Data returned: 5.44
